Molecular target: Cannabinoid receptor 1 (Rattus norvegicus, UniProt P20272)
Sequence (P20272 whole entry): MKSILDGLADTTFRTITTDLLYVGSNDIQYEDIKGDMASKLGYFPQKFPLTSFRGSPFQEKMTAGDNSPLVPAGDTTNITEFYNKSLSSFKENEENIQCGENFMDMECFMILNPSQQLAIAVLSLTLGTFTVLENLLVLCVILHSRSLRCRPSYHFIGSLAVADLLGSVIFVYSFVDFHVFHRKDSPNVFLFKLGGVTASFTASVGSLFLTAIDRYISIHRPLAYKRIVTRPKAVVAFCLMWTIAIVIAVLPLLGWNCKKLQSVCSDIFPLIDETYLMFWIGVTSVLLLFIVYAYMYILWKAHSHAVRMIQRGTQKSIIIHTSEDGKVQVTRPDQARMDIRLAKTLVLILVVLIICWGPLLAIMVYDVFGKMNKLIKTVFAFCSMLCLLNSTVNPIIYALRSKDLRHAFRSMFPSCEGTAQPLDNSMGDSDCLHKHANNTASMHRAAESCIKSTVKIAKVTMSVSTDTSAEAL
Test: Displacement of [3H]CP55940 from CB1 receptor in rat brain membranes by scintillation counting method
Format: cell membranes
pKi: −log10 of the molar value.
Endpoint Name: pKi

[[record]]
structure_smiles = "CC1(C)Oc2cc(CC(=O)O)cc(O)c2[C@@H]2C[C@H](O)CC[C@H]21"
val = "< 5.00"

[[record]]
structure_smiles = "CC(C)(C(=O)O)c1cc(O)c2c(c1)OC(C)(C)[C@@H]1CC[C@H](O)C[C@@H]21"
val = "< 5.00"

[[record]]
structure_smiles = "CC(C)(C(=O)O)c1cc(O)c2c(c1)OC(C)(C)[C@@H]1CC[C@@H](O)C[C@@H]21"
val = "< 5.00"

[[record]]
structure_smiles = "CCCCOC(=O)Cc1cc(O)c2c(c1)OC(C)(C)[C@@H]1CC[C@@H](O)C[C@@H]21"
val = 6.62

[[record]]
structure_smiles = "CCCCOC(=O)Cc1cc(O)c2c(c1)OC(C)(C)[C@@H]1CC[C@H](O)C[C@@H]21"
val = 6.12

[[record]]
structure_smiles = "CCCCOC(=O)C(C)(C)c1cc(O)c2c(c1)OC(C)(C)[C@@H]1CC[C@@H](CO)C[C@@H]21"
val = 8.62

[[record]]
structure_smiles = "CC(C)(C(=O)O)c1cc(O)c2c(c1)OC(C)(C)[C@@H]1CC=C(CO)C[C@@H]21"
val = "< 5.00"

[[record]]
structure_smiles = "CC1(C)Oc2cc(CC(=O)O)cc(O)c2[C@@H]2C[C@@H](O)CC[C@H]21"
val = "< 5.00"

[[record]]
structure_smiles = "CC(C)(C(=O)O)c1cc(O)c2c(c1)OC(C)(C)[C@@H]1CC[C@@H](CO)C[C@@H]21"
val = "< 5.00"

